Test system: LNCaP cells
experimental.details: Inhibition of LNCaP cell proliferation (WST-8)
Assay type: cell-based
test.context: LNCaP FGC cells, 96 hours
observation.type: IC50 (µM)
Give the value, in units of µM, as a plain number.

Please report IC50 with LNCaP cells for item COc1cc(O[C@H]2C(C)(C)[C@H](NC(=O)c3ccc(N4CCC(CN5CCN(c6ccc(C(=O)N[C@H]7CCC(=O)NC7=O)c(F)c6)CC5)CC4)cc3)C2(C)C)ccc1C#N [ARV-766, reference compound] .
1.07

###

system.tested: AR protein (Homo sapiens)
Construct: host or cells: VCaP
experimental.details: AR protein degradation in VCaP cells (Western blot)
Type: cell-based
test.context: 5 nM, 8h
AR protein degradation rate at fixed concentration (%) at 0.005 µM overview
Reply with just the number (in %).

# annotated cases, reported AR protein degradation rate at fixed concentration (%) at 0.005 µM shown
1. Cn1c(=O)n(C2CCC(=O)NC2=O)c2cc3c(cc21)C1(CCN(CC2CCN(c4ccc(C(=O)N[C@H]5CC[C@H](Oc6ccc(C#N)c(Cl)c6)CC5)nn4)CC2)CC1)CO3 (stereo partly drawn) ... 78
2. COc1cc(O[C@H]2C(C)(C)[C@H](NC(=O)c3ccc(N4CCC(N5CC6(CCC7(CC6)COc6c7ccc7c6CN(C6CCC(=O)NC6=O)C7=O)C5)CC4)cc3)C2(C)C)ccc1C#N (stereo partly drawn) ... 83

Using the record for COc1cc(O[C@H]2C(C)(C)[C@H](NC(=O)c3ccc(N4CCC(CN5CCC6(CC5)COc5c6ccc6c5n(C)c(=O)n6C5CCC(=O)NC5=O)CC4)cc3)C2(C)C)ccc1C#N (stereo partly drawn) , state its measured AR protein degradation rate at fixed concentration (%) at 0.005 µM.
80

###

system.tested: AR protein (Homo sapiens, UniProt P10275, T878A)
Construct: host or cells: LNCaP FGC
Sequence (P10275 whole entry T878A): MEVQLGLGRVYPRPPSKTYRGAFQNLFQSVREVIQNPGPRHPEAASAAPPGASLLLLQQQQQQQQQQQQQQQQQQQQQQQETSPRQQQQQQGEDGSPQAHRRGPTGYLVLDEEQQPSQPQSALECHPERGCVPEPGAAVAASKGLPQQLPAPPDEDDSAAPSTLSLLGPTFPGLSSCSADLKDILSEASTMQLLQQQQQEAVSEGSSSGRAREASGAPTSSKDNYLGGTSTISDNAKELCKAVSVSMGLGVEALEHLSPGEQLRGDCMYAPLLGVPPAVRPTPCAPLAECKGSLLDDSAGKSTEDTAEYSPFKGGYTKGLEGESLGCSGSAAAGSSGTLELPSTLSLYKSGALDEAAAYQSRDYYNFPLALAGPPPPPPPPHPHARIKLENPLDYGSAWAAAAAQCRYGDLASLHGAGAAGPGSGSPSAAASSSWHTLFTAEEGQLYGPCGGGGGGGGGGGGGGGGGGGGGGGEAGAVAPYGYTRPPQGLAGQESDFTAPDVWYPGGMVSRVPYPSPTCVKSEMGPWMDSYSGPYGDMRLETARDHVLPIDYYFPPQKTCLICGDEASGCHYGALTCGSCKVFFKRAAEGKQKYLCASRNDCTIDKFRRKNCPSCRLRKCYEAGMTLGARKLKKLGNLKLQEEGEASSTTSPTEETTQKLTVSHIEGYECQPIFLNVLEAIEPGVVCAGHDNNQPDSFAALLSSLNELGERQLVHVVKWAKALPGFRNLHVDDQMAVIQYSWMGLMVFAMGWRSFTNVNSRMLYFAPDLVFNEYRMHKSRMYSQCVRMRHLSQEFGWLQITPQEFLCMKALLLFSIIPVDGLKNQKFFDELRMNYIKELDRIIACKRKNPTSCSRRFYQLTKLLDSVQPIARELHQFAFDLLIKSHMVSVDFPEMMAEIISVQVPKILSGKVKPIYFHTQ
experimental.details: AR protein degradation in LNCaP cells (Western blot)
Type: cell-based
test.context: 10 nM, 8 hours
Use T when the recorded percent AR protein degradation at a fixed concentration at 0.01 µM is no lower than 40%; use F when it is lower.

See these solved cases before continuing.
1. Cn1c(=O)n(C2CCC(=O)NC2=O)c2cc3c(cc21)C1(CCN(CC2CCN(c4ccc(C(=O)N[C@H]5CC[C@H](Oc6ccc(C#N)c(Cl)c6)CC5)nn4)CC2)CC1)CO3 (some centres unmarked) ... T
2. COc1cc(O[C@H]2C(C)(C)[C@H](NC(=O)c3ccc(N4CCC(N5CCC6(CC5)COc5c6ccc6c5n(C)c(=O)n6C5CCC(=O)NC5=O)CC4)cc3)C2(C)C)ccc1C#N (some centres unmarked) ... F

Does percent AR protein degradation at a fixed concentration at 0.01 µM meet or surpass 40% for COc1cc(O[C@H]2C(C)(C)[C@H](NC(=O)c3ccc(N4CCC(CN5CCC6(CC5)COc5c6ccc6c5n(C)c(=O)n6C5CCC(=O)NC5=O)CC4)cc3)C2(C)C)ccc1C#N (some centres unmarked) ?
T

Test whether the molecule C[C@H]1CC2(CCN(c3ccc(C(=O)N4CCC(CN5CCN6c7ccc(C(=O)N[C@H]8CCC(=O)NC8=O)c(F)c7OC[C@H]6C5)CC4)cc3)CC2)CN1c1ccc(C#N)c(Cl)c1 records percent AR protein degradation at a fixed concentration at 0.01 µM of 40% or higher.
T

Confirm if percent AR protein degradation at a fixed concentration at 0.01 µM reported for the molecule COc1cc2c(cc1C(=O)N[C@H]1CCC(=O)NC1=O)C1(CCN(CC3CCN(C(=O)c4ccc(N5CCC6(CC5)C[C@H](C)N(c5ccc(C#N)c(Cl)c5)C6)cc4)CC3)CC1)CO2 is 40% or above.
T

Source: patent EP4722219A1
